Measured number of osteoclasts (fig. 1f) by item
System: BMM cells
protocol details: Osteoclastogenic assay of WT, single-point mutated sRANKL and L-RANKL
Format: cell-based, mouse
assay setup: BMMs, M-CSF 10 ng/mL, sRANKL protein 100 ng/mL
Format: numeric value only, no unit, no commentary.

• D303A: single-point mutated rat sRANKL (protein, left off: His6, N-terminal, cleaved | SUMO, N-terminal, cleaved, single-point mutated rat sRANKL) KPEAQPFAHLTINAADIPSGSHKVSLSSWYHDRGWAKISNMTLSNGKLRVNQDGFYYLYANICFRHHETSGSVPADYLQLMVYVVKTSIKIPSSHNLMKGGSTKNWSGNSEFHFYSINVGGFFKLRAGEEISVQVSNPSLLDPAQDATYFGAFKVQDID = 0

Now turn to the next molecule.
**Query** What value of number of osteoclasts (fig. 1f) has been recorded for this entry: E270A: single-point mutated rat sRANKL (protein, left off: His6, N-terminal, cleaved | SUMO, N-terminal, cleaved, single-point mutated rat sRANKL) KPEAQPFAHLTINAADIPSGSHKVSLSSWYHDRGWAKISNMTLSNGKLRVNQDGFYYLYANICFRHHETSGSVPADYLQLMVYVVKTSIKIPSSHNLMKGGSTKNWSGNSAFHFYSINVGGFFKLRAGEEISVQVSNPSLLDPDQDATYFGAFKVQDID
**Result** 0
